Test system: Hek293T
procedure details: Primary qHTS to identify gynecologic anti-cancer compounds using libraries of approved drugs and bioactive compounds (AID 1345084); also: % is scaled to controls: 0 for no effect and ±100 for the full control effect; nearly all actives have a fitted effect of over 55% in size
condition parameters: Gynecologic cancer cell panel viability, ATPlite luminescence, 48 h, control line for the selectivity index; series mostly up to 57.5 µM
Records with an inconclusive call do not appear. Active and inactive are the calls of the source. Calls follow the shape of the dose curve; as a rule, active = well fitted cell-killing curve with a large enough effect; inconclusive = small, poorly fitted or top-dose-only effect, or effect the other way; inactive = flat fitted curve, though single readings scatter.
observation type: outcome

// known answers, use as guide
Fill blank: measured outcome of the compound CC1(C)CC[C@]2(C(=O)O)CC[C@]3(C)C(=CCC4[C@@]5(C)CC[C@H](O[C@@H]6O[C@H](C(=O)O)[C@@H](O[C@@H]7OC[C@@H](O)[C@H](O)[C@H]7O)[C@H](O)[C@H]6O)C(C)(C)C5CC[C@]43C)C2C1O (stereo partly specified) is ____.
inactive

Now give it for C[C@@H]1CC[C@]2(C(=O)O)CC[C@]3(C)C(=CCC4[C@@]5(C)C[C@@H](O)[C@H](O)[C@@](C)(CO)C5CC[C@]43C)C2[C@]1(C)O (stereo partly specified) too.
inactive

Now give it for "COc1cc(Br)c(S(=O)(=O)Nc2ccc(C(F)(F)F)c(O[C@@H]3CCN(C)C3)c2)cc1OC" too.
inactive

Now give it for "OC[C@H]1O[C@@H](OCCc2ccc(O)cc2)[C@H](O[C@@H]2OC[C@](O)(CO)[C@H]2O)[C@@H](O)[C@@H]1O" too.
inactive

Now give it for CC(O)CCC1C(CO[C@@H]2O[C@H](CO)[C@@H](O)[C@H](O)[C@H]2O)CC(O)CC1(C)C (stereo partly specified) too.
inactive

Turning to the following compound.
Fill blank: measured outcome of the compound CC1=CC(=O)CC(C)(C)[C@H]1/C=C/C(CO)O[C@@H]1O[C@H](CO)[C@@H](O)[C@H](O)[C@H]1O (stereo partly specified) is ____.
inactive

====

Measured max response, listed per entry for reference.
Test system: CRL-7250
procedure details: Cytotoxic Profiling of Annotated Libraries Using Quantitative High-Throughput Screening (AID 1296008); also: % is scaled to controls: 0 for no effect and ±100 for the full control effect; nearly all actives have a fitted effect of over 60% in size
condition parameters: Five cell lines viability, CellTiter-Glo ATP luminescence, 48-72 h; active compounds read low
Records with an inconclusive call do not appear.
Hi! Could you send only the number? It should be in %, unit omitted.

Fill blank: measured max response of the molecule "COC(=O)C1=CO[C@@H](O[C@@H]2O[C@H](CO)[C@@H](O)[C@H](O)[C@H]2O)[C@@H]2C(CO)=CC[C@]12O" is ____.
-2.05

Now give it for "CC(C)(C)OC(=O)N1CCC(OCc2nc(-c3ccncc3)no2)CC1" too.
-15.9

Now give it for COc1ccc([C@@H]2OC[C@H]3[C@@H]2CO[C@@H]3c2ccc(OC3OC(CO)C(O)C(O)C3O)c(OC)c2)cc1OC (some centres undefined) too.
-6.62

Now give it for "CCO[C@@H]1OC(=O)C[C@@H]1NC(=O)[C@@H]1CCCN1C(=O)[C@@H](NC(=O)c1ccc(N)c(Cl)c1)C(C)(C)C" too.
1.63

Now give it for "COc1cc(N)c(Cl)cc1C(=O)NC[C@@H]1CCN2CCC[C@@H]12" too.
-16.7

====

Tested on: KB-3-1
procedure details: Cytotoxic Profiling of Annotated Libraries Using Quantitative High-Throughput Screening (AID 1296008); also: % is scaled to controls: 0 for no effect and ±100 for the full control effect; nearly all actives have a fitted effect of over 60% in size
condition parameters: Five cell lines viability, CellTiter-Glo ATP luminescence, 48-72 h; active compounds read low
Results filed as inconclusive are left out. Activity calls are given as the source filed them. The call rests on the fitted dose curve; in most records, active means well fitted inhibition curve with a large enough effect; inconclusive means small, poorly fitted or top-dose-only effect; inactive means flat fitted curve, though single readings scatter.
Measured max response, listed per entry for reference.

For KB-3-1, provide max response of CC(=O)OC1C(OC(=O)c2ccccc2)C2C(C)(C)CC(=O)CC2(C)C23CCC(C)(C2)C(O)CC13 (stereo unspecified) please.
-13.9% (inactive)

Now give it for CC1(C(=O)O)CCCC2(C)C3=CCC4CC3(CCC12)CC4CO (stereo unspecified) too.
2.22% (inactive)

Now give it for CC(=O)O[C@H]1CC(C)(C)CC2[C@@]13[C@H](O)C[C@]1(C)[C@@]2(CCC2[C@@]4(C)CC[C@H](O[C@@H]5OC[C@H](O[C@@H]6O[C@H](CO)[C@@H](O)[C@H](O)[C@H]6O[C@@H]6OC[C@@H](O)[C@H](O)[C@H]6O)[C@H](O)[C@H]5O[C@@H]5O[C@H](CO)[C@@H](O)[C@H](O)[C@H]5O)C(C)(C)C4CC[C@]21C)O[C@@H]3O (stereo partly specified) too.
-24.8% (inactive)

====

Tested on: Hek293T
procedure details: Primary qHTS to identify gynecologic anti-cancer compounds using libraries of approved drugs and bioactive compounds (AID 1345084); also: % is scaled to controls: 0 for no effect and ±100 for the full control effect; nearly all actives have a fitted effect of over 55% in size
condition parameters: Gynecologic cancer cell panel viability, ATPlite luminescence, 48 h, control line for the selectivity index; series mostly up to 57.5 µM
Records with an inconclusive call do not appear. Calls of active or inactive are those of the source. The call rests on the fitted dose curve; in most records, active means well fitted cell-killing curve with a large enough effect; inconclusive means small, poorly fitted or top-dose-only effect, or effect the other way; inactive means flat fitted curve, though single readings scatter.
observation type: outcome

Fill blank: measured outcome of the compound CC1(C)CC[C@]2(C(=O)O[C@@H]3O[C@H](CO)[C@@H](O)[C@H](O)[C@H]3O)CC[C@]3(C)C(=CCC4[C@@]5(C)C[C@@H](O)[C@H](O)C(C)(C)C5CC[C@]43C)C2[C@@H]1O (some centres undefined) is ____.
inactive

Now give it for "C[C@H](Nc1ncnc2nc[nH]c12)c1cc2ccc(F)cc2nc1-c1ccccn1" too.
inactive

Now give it for "CN[C@H](CC(C)C)C(=O)N[C@H]1C(=O)N[C@@H](CC(N)=O)C(=O)N[C@H]2C(=O)N[C@H]3C(=O)N[C@H](C(=O)N[C@H](C(=O)O)c4cc(O)cc(O)c4-c4cc3ccc4O)[C@H](O[C@H]3C[C@](C)(N)[C@@H](O)[C@H](C)O3)c3ccc(c(Cl)c3)Oc3cc2cc(c3O[C@@H]2O[C@H](CO)[C@@H](O)[C@H](O)[C@H]2O[C@H]2C[C@](C)(NCc3ccc(-c4ccc(Cl)cc4)cc3)[C@@H](O)[C@H](C)O2)Oc2ccc(cc2Cl)[C@H]1O" too.
inactive

Now give it for CC(C)=CCC[C@](C)(O)[C@H]1CC[C@]2(C)[C@@H]1[C@H](O)CC1[C@@]3(C)CC[C@H](O)C(C)(C)[C@@H]3[C@@H](O[C@@H]3O[C@H](CO)[C@@H](O)[C@H](O)[C@H]3O[C@@H]3O[C@H](CO)[C@@H](O)[C@H](O)[C@H]3O)C[C@]12C (some centres undefined) too.
inactive

====

procedure details: Primary fluorescence-based thiol-reactive (MSTI) qHTS assay for identification of artifact compounds. (AID 1845221);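 also: thiol-reactive compounds lower the probe fluorescence signal; nearly all actives have a fitted effect of over 65% in size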
condition parameters: MSTI thiol-reactivity probe, 1 h; series mostly up to 53.8 µM
Results filed as inconclusive are left out. Active and inactive are the calls of the source. Calls follow the shape of the dose curve; as a rule, active = well fitted inhibition curve with a large enough effect; inconclusive = small, poorly fitted or top-dose-only effect; inactive = no such curve, though single readings can be large or run the other way.
observation type: activity change, negative = thiol reactive

// known answers, use as guide
Fill blank: measured activity change, negative = thiol reactive of the compound "CC(C)C[C@H](CC(=O)NO)C(=O)N[C@H](C(=O)N[C@@H](C)C(=O)NCCN)C(C)(C)C" is ____.
1.54% [at 11.5 µM] (inactive)

Now give it for CC1(C)CC[C@]2(C(=O)O[C@@H]3O[C@H](CO)[C@@H](O)[C@H](O)[C@H]3O)CC[C@]3(C)C(=CCC4[C@@]5(C)CC[C@H](O[C@@H]6O[C@H](C(=O)O)[C@@H](O)[C@H](O[C@@H]7O[C@H](CO)[C@H](O)[C@H](O)[C@H]7O)[C@H]6O)C(C)(C)C5CC[C@]43C)C2C1 (stereo partly drawn) too.
172% [at 11.5 µM] (inactive)

Now give it for "C[C@@H]1C[C@H]2O[C@@H]2/C=C\C=C\C(=O)Cc2c(Cl)c(O)cc(O)c2C(=O)O1" too.
-4.56% [at 11.5 µM] (inactive)

Now give it for C[C@@H]1O[C@@H](O[C@H]2[C@H](O[C@H]3CC[C@@]4(C)C(CC[C@]5(C)C4CC=C4[C@@H]6CC(C)(C)CC[C@]6(C(=O)O[C@@H]6OC[C@H](O)[C@H](O)[C@H]6O[C@@H]6O[C@@H](C)[C@H](O[C@@H]7O[C@H](CO)[C@@H](O)[C@H](O)[C@H]7O)[C@H](O)[C@H]6O)[C@H](O)C[C@]45C)C3(C)C)O[C@H](CO)[C@@H](O[C@@H]3OC[C@@H](O)[C@H](O)[C@H]3O)[C@@H]2O)[C@H](O)[C@H](O)[C@H]1O (stereo partly drawn) too.
113% [at 11.5 µM] (inactive)

Now give it for C[C@@H]1O[C@@H](O[C@H]2[C@H](O[C@H]3CC[C@@]4(C)C(CC[C@]5(C)C4C=C[C@]46OC[C@@]7(CCC(C)(C)C[C@H]74)[C@@H](O)C[C@]65C)[C@]3(C)CO)O[C@H](CO)[C@@H](O)[C@@H]2O[C@@H]2O[C@H](CO)[C@@H](O[C@@H]3O[C@@H](C)[C@H](O)[C@@H](O)[C@H]3O)[C@H](O)[C@H]2O)[C@H](O)[C@H](O)[C@H]1O (stereo partly drawn) too.
81.1% [at 11.5 µM] (inactive)

Now give it for CC(=O)N[C@H]1[C@H](O[C@H]2CC[C@@]3(C)C(CC[C@]4(C)C3CC=C3C5CC(C)(C)CC[C@]5(C(=O)O)[C@H](O)C[C@]34C)C2(C)C)O[C@H](CO[C@@H]2OC[C@H](O)[C@H](O)[C@H]2O[C@@H]2OC[C@@H](O)[C@H](O)[C@H]2O)[C@@H](O)[C@@H]1O (stereo partly drawn) too.
85% [at 11.5 µM] (inactive)

Now give it for C[C@@H]1O[C@@H](O[C@@H]2[C@@H](O)[C@H](O[C@H]3CC[C@@]4(C)C(CC[C@]5(C)C4CC=C4[C@@H]6CC(C)(C)CC[C@]6(C(=O)O[C@@H]6O[C@H](CO)[C@@H](O)[C@H](O)[C@H]6O)CC[C@]45C)C3(C)C)O[C@H](C(=O)O)[C@H]2O)[C@H](O)[C@H](O)[C@H]1O (stereo partly drawn) too.
312% [at 11.5 µM] (inactive)

Turning to the following compound.
Fill blank: measured activity change, negative = thiol reactive of the compound "C1CCC[C@H]2CCCN3CC[C@@H](CCCCCC[C@@H]4CCCN5CC[C@@H](CC1)O[C@@H]45)O[C@@H]23" is ____.
0.0753% [at 0.0963 µM] (inactive)
